This listing pairs compounds with measured solubility.
# test-protocol: Absolute aqueous solubility
# Type: physicochemical
# setup-conditions: 25 °C, thermodynamic from solid; water, about 6 hrs equilibration, 25 deg centigrade, UV
# Experimental: The objective of the study was to determine the absolute solubility of the powder form of the test compounds in water. Brief procedure: The powder form of test compounds was allowed to saturate in an aqueous medium and is equilibrated for about 6 hrs until the compound precipitates. The precipitated solution was centrifuged at 15,000 rpm for 10 mins at 25 deg centigrade and the supernatant solution was analyzed by UV spectrometry. […]
Structures can show the parent of a compound that is named as a salt.

[
  {
    "compound": "O=C(CCCCCCC(=O)Nc1ccccc1)NO [SAHA, Suberoylanilide Hydroxamic Acid, reference compound]",
    "solubility (µg/mL)": 230
  },
  {
    "compound": "O=C(NO)c1ccc(Cn2cc(-c3ccc(CN4CCOCC4)cc3)nn2)cc1",
    "solubility (µg/mL)": 4700
  },
  {
    "compound": "O=C(/C=C/c1ccc(Cn2cc(-c3ccc(CN4CCCC4)cc3)nn2)cc1)NO",
    "solubility (µg/mL)": 9400
  },
  {
    "compound": "O=C(/C=C/c1cccc(Cn2cc(-c3ccc(CN4CCOCC4)cc3)nn2)c1)NO [Example 25, hydrochloride]",
    "solubility (µg/mL)": 2900
  },
  {
    "compound": "O=C(NO)c1ccc(Cn2cc(-c3ccc(CN4CCCC4)cc3)nn2)cc1",
    "solubility (µg/mL)": 5100
  },
  {
    "compound": "CN(C)Cc1ccc(-c2cn(Cc3ccc(/C=C/C(=O)NO)cc3)nn2)cc1",
    "solubility (µg/mL)": 11600
  }
]
